- Tested on: T2 cells loaded with individual peptides
- Experiment Summary: 51Cr Release Assay for activity of CTL generated with peptide-loaded Drosophila aAPC
- Assay type: cell-based, human
- Parameters: key: Strong (S); Median (M); Weak (W); None (N)
- Assay Setup: CTL generated with truncated peptides; T2 targets loaded with individual peptides
Attribute Measured: CTL Activity

> print(dat)
                                  substance  attribute.measured  observed.measurement
1  IDLPGITR (listed as Homo sapiens) [Peptide P14-14]        CTL Activity                     M
2  LIDLPGI (listed as Homo sapiens) [Peptide P14-15]        CTL Activity                     S
3  TLVDLPGMTKV (listed as Homo sapiens) [Peptide P13]        CTL Activity                     M
4  IDLPGIT (listed as Homo sapiens) [Peptide P14-16]        CTL Activity                     W
5  LVDLPGM (listed as Homo sapiens) [Peptide P13-13]        CTL Activity                     W

* * *

- Experimental System: HLA-A2 molecules in T2 cells (Homo sapiens, UniProt P04439, D140Y/D185E/D98H/E176V/E277Q/G131W/G231S/I119V/I121R/I166T/I218V/L300P/L318F/N151K/N90K/P208A/P217A/Q86G/Q94H/R138H/R169H/T345S)
- Construct: HLA-A2 molecules that are synthesized in a transporter associated with antigen processing (TAP)-deficient cell line, T2; host or cells: T2 cells (TAP-deficient human cell line)
- Experiment Summary: HLA-A2 Stabilization Assay (peptide binding, T2 cells, flow cytometry)
- Parameters: key: Strong (S); Median (M); Weak (W); None (N)
- Assay Setup: computer predicted peptides
Attribute Measured: HLA-A2 Binding

> print(dat)
                             entry.sequence  attribute.measured  observed.measurement
1  FVPEVSFEL (listed as Homo sapiens) [Peptide P13-18]      HLA-A2 Binding                     S
2  LVYLGHVIYL (listed as Homo sapiens) [Peptide P3-11]      HLA-A2 Binding                     W
3  FQMEQIVYC (listed as Homo sapiens) [Peptide P14-19]      HLA-A2 Binding                     M
4  KLHDAIVEV (listed as Homo sapiens) [Peptide P13-17]      HLA-A2 Binding                     S
5  FMLQTYGQQL (listed as Homo sapiens) [Peptide P14-18]      HLA-A2 Binding                     N
6  KLHDAIVEVV (listed as Homo sapiens) [Peptide P13-16]      HLA-A2 Binding                     M
7  NLLELVHLL (listed as Homo sapiens) [Peptide P3-9]      HLA-A2 Binding                     S

* * *

- Experimental System: HLA-A2 molecules in T2 cells (Homo sapiens, UniProt P04439, D140Y/D185E/D98H/E176V/E277Q/G131W/G231S/I119V/I121R/I166T/I218V/L300P/L318F/N151K/N90K/P208A/P217A/Q86G/Q94H/R138H/R169H/T345S)
- Construct: HLA-A2 molecules that are synthesized in a transporter associated with antigen processing (TAP)-deficient cell line, T2; host or cells: T2 cells (TAP-deficient human cell line)
- Experiment Summary: HLA-A2 Stabilization Assay (peptide binding, T2 cells, flow cytometry)
- Design: key: Strong (S); Median (M); Weak (W); None (N)
- Assay Setup: truncated versions of P3, P13, P14
Attribute Measured: HLA-A2 Binding

> print(dat)
                                   substance  attribute.measured  observed.measurement
 1  LIDLPGITR (listed as Homo sapiens) [Peptide P14-12]      HLA-A2 Binding                     N
 2  SLVLNL (listed as Homo sapiens) [Peptide P3-6]      HLA-A2 Binding                     N
 3  IDLPGITR (listed as Homo sapiens) [Peptide P14-14]      HLA-A2 Binding                     W
 4  TLVDLPGMTKV (listed as Homo sapiens) [Peptide P13]      HLA-A2 Binding                     M
 5  TLVDLPGMTK (listed as Homo sapiens) [Peptide P13-6]      HLA-A2 Binding                     N
 6  TLVDLPGMT (listed as Homo sapiens) [Peptide P13-7]      HLA-A2 Binding                     N
 7  TLVDLPGM (listed as Homo sapiens) [Peptide P13-8]      HLA-A2 Binding                     N
 8  DLPGITRV (listed as Homo sapiens) [Peptide P14-3]      HLA-A2 Binding                     N
 9  IDLPGIT (listed as Homo sapiens) [Peptide P14-16]      HLA-A2 Binding                     W
10  DLPGMTKV (listed as Homo sapiens) [Peptide P13-3]      HLA-A2 Binding                     N
11  TLIDLPGIT (listed as Homo sapiens) [Peptide P14-7]      HLA-A2 Binding                     N
12  TLIDLPGITRV (listed as Homo sapiens) [Peptide P14]      HLA-A2 Binding                     M
13  VDLPGMT (listed as Homo sapiens) [Peptide P13-14]      HLA-A2 Binding                     N
14  LPGMTKV (listed as Homo sapiens) [Peptide P13-4]      HLA-A2 Binding                     N
15  TLVDLPG (listed as Homo sapiens) [Peptide P13-9]      HLA-A2 Binding                     N
16  TLIDLPGITR (listed as Homo sapiens) [Peptide P14-6]      HLA-A2 Binding                     N
17  LIDLPGITRV (listed as Homo sapiens) [Peptide P14-1]      HLA-A2 Binding                     N
18  TLIDLPGI (listed as Homo sapiens) [Peptide P14-8]      HLA-A2 Binding                     N
19  IDLPGITRV (listed as Homo sapiens) [Peptide P14-2]      HLA-A2 Binding                     N
20  SLVLNLL (listed as Homo sapiens) [Peptide P3-5]      HLA-A2 Binding                     N
21  SLVLNLLE (listed as Homo sapiens) [Peptide P3-4]      HLA-A2 Binding                     N
22  LIDLPGI (listed as Homo sapiens) [Peptide P14-15]      HLA-A2 Binding                     W
23  PGMTKV (listed as Homo sapiens) [Peptide P13-5]      HLA-A2 Binding                     N
24  TLVDLP (listed as Homo sapiens) [Peptide P13-10]      HLA-A2 Binding                     N
25  LNLLEL (listed as Homo sapiens) [Peptide P3-3]      HLA-A2 Binding                     N
26  TLIDLP (listed as Homo sapiens) [Peptide P14-10]      HLA-A2 Binding                     N
27  LVLNLLE (listed as Homo sapiens) [Peptide P3-8]      HLA-A2 Binding                     N
28  SLVLNLLEL (listed as Homo sapiens) [Peptide P3]      HLA-A2 Binding                     M
29  LIDLPGIT (listed as Homo sapiens) [Peptide P14-13]      HLA-A2 Binding                     N
30  LVDLPGMTKV (listed as Homo sapiens) [Peptide P13-1]      HLA-A2 Binding                     N
31  DLPGMTK (listed as Homo sapiens) [Peptide P13-15]      HLA-A2 Binding                     N

meta.source: patent US8232101B2
